Exercise: for every item that follows, state its recorded Urinary Sodium Excretion.
system: Wistar rats; test: Subacute toxicity: water and electrolyte balance (osmolality, sodium, potassium, urinary flow); format: in vivo; settings: rats, p.o., 14 days at 10% of LD50 (CCl4, APAP: once daily, 3 days); mean ± SEM, n = 6

Hi! Can you tell me Urinary Sodium Excretion for each of these molecules?
1. O=C(O)c1nc2ccccn2c1[N+](=O)[O-]
2. CC(=O)Nc1ccc(O)cc1 [APAP, acetaminophen, reference compound]
3. O=C(O)c1cn2ccccc2n1 [Compound 3a, imidazo[1,2-a]pyridine-2-carboxylic acid]
4. N#Cc1nc2ccccn2c1[N+](=O)[O-]
5. N#Cc1cn2ccccc2n1 [Compound 2a, imidazo[1,2-a]pyridine-2-carbonitrile]

1. 0.34 ± 0.06 µEq/min
2. 0.46 ± 0.21 µEq/min
3. 0.17 ± 0.05 µEq/min
4. 1.87 ± 0.39 µEq/min
5. 0.51 ± 0.09 µEq/min

* * *

system: Wistar rats; experiment: Subacute toxicity: water and electrolyte balance (osmolality, sodium, potassium, urinary flow); assay type: in vivo; conditions: rats, p.o., 14 days at 10% of LD50 (CCl4, APAP: once daily, 3 days); mean ± SEM, n = 6
recorded endpoint: Serum Osmolality (mOsm/kg)
Give bare numbers, in mOsm/kg.

Hi! Can you tell me Serum Osmolality for each of these compounds?
1. CC(=O)Nc1ccc(O)cc1 [APAP, acetaminophen, reference compound]
2. CCOC(=O)c1nc2ccccn2c1[N+](=O)[O-]
3. CCOC(=O)c1cn2ccccc2n1
4. O=C(O)c1nc2ccccn2c1[N+](=O)[O-]
5. O=C(O)c1cn2ccccc2n1 [Compound 3a, imidazo[1,2-a]pyridine-2-carboxylic acid]

1. 295.68
2. 294.04
3. 293.75
4. 293.74
5. 304.73

Hi! Can you tell me Serum Osmolality for each of these compounds?
1. ClC(Cl)(Cl)Cl [CCl4, carbon tetrachloride, reference compound]
2. N#Cc1cn2ccccc2n1 [Compound 2a, imidazo[1,2-a]pyridine-2-carbonitrile]
3. N#Cc1nc2ccccn2c1[N+](=O)[O-]

305.77
291.74
288.93

* * *

tested on: Wistar rats; assay: Hepatic and renal lipid peroxidation (lipid-soluble fluorescence); assay type: in vivo; conditions: liver; rats, p.o., 14 days at 10% of LD50 (CCl4, APAP: once daily, 3 days); mean ± SEM, n = 6
recorded endpoint: Hepatic Lipoperoxidation (URF/mg protein)
One number for each entry, in URF/mg protein.

Solved entries (count: 3):
>>> df
                                   compound  quantitative_result
0  CC(=O)Nc1ccc(O)cc1 [APAP, acetaminophen, reference compound]                 1.06
1              N#Cc1nc2ccccn2c1[N+](=O)[O-]                 0.64
2         CCOC(=O)c1nc2ccccn2c1[N+](=O)[O-]                 0.74

Hi! Can you tell me Hepatic Lipoperoxidation for each of these compounds?
1. CCOC(=O)c1cn2ccccc2n1
2. ClC(Cl)(Cl)Cl [CCl4, carbon tetrachloride, reference compound]
3. O=C(O)c1nc2ccccn2c1[N+](=O)[O-]
4. O=C(O)c1cn2ccccc2n1 [Compound 3a, imidazo[1,2-a]pyridine-2-carboxylic acid]

1. 0.75
2. 1.06
3. 0.80
4. 0.79

For the compound N#Cc1cn2ccccc2n1 [Compound 2a, imidazo[1,2-a]pyridine-2-carbonitrile] , give its reported Hepatic Lipoperoxidation.
0.71

* * *

tested on: Wistar rats; test: Hepatic and renal lipid peroxidation (lipid-soluble fluorescence); format: in vivo; conditions: kidney; rats, p.o., 14 days at 10% of LD50 (CCl4, APAP: once daily, 3 days); mean ± SEM, n = 6
Exercise: for every item that follows, state its recorded Renal Lipoperoxidation.
One number for each entry, in URF/mg protein.

Solved entries (count: 6):
>>> df
                                   molecule     unit_string  quantitative_result
0                     CCOC(=O)c1cn2ccccc2n1  URF/mg protein                 0.28
1           O=C(O)c1nc2ccccn2c1[N+](=O)[O-]  URF/mg protein                 0.44
2  ClC(Cl)(Cl)Cl [CCl4, carbon tetrachloride, reference compound]  URF/mg protein                 0.61
3              N#Cc1nc2ccccn2c1[N+](=O)[O-]  URF/mg protein                 0.47
4  CC(=O)Nc1ccc(O)cc1 [APAP, acetaminophen, reference compound]  URF/mg protein                 0.46
5         CCOC(=O)c1nc2ccccn2c1[N+](=O)[O-]  URF/mg protein                 0.38

Hi! Can you tell me Renal Lipoperoxidation for each of these molecules?
1. N#Cc1cn2ccccc2n1 [Compound 2a, imidazo[1,2-a]pyridine-2-carbonitrile]
2. O=C(O)c1cn2ccccc2n1 [Compound 3a, imidazo[1,2-a]pyridine-2-carboxylic acid]

1. 0.30
2. 0.29

* * *

tested on: Wistar rats; experiment: Subacute toxicity: water and electrolyte balance (osmolality, sodium, potassium, urinary flow); format: in vivo; conditions: rats, p.o., 14 days at 10% of LD50 (CCl4, APAP: once daily, 3 days); mean ± SEM, n = 6
Exercise: for every item that follows, state its recorded Filtered Load of Potassium.
Please give the number followed by its unit.

>>> print(df.to_string())
                                   compound                result
0         CCOC(=O)c1nc2ccccn2c1[N+](=O)[O-]   1.70 ± 0.21 µEq/min
1  ClC(Cl)(Cl)Cl [CCl4, carbon tetrachloride, reference compound]  17.22 ± 5.29 µEq/min
2              N#Cc1nc2ccccn2c1[N+](=O)[O-]  10.21 ± 1.12 µEq/min
3  O=C(O)c1cn2ccccc2n1 [Compound 3a, imidazo[1,2-a]pyridine-2-carboxylic acid]   1.98 ± 0.44 µEq/min
4  CC(=O)Nc1ccc(O)cc1 [APAP, acetaminophen, reference compound]   3.99 ± 0.80 µEq/min
5                     CCOC(=O)c1cn2ccccc2n1   2.69 ± 1.19 µEq/min
6  N#Cc1cn2ccccc2n1 [Compound 2a, imidazo[1,2-a]pyridine-2-carbonitrile]   5.07 ± 1.44 µEq/min

Could you now look at the following compound, please?
For the compound O=C(O)c1nc2ccccn2c1[N+](=O)[O-] , give its reported Filtered Load of Potassium.
4.15 ± 0.53 µEq/min

* * *

tested on: renal secretory pathway of organic anions; assay: Active tubular secretion of organic acids (PAH uptake in kidney cortex slices); format: in vivo, rats; conditions: kidney cortex slices, PAH 1 mM, 1 h, 25 °C; rats, p.o., 14 days at 10% of LD50 (CCl4, APAP: once daily, 3 days); mean ± SEM, n = 6
recorded endpoint: PAH t/m ratio
Numbers only.

>>> print(df.to_string())
                                   molecule  quantitative_result
0           O=C(O)c1nc2ccccn2c1[N+](=O)[O-]                 1.92
1  N#Cc1cn2ccccc2n1 [Compound 2a, imidazo[1,2-a]pyridine-2-carbonitrile]                 1.07
2  O=C(O)c1cn2ccccc2n1 [Compound 3a, imidazo[1,2-a]pyridine-2-carboxylic acid]                 2.25
3  ClC(Cl)(Cl)Cl [CCl4, carbon tetrachloride, reference compound]                 2.08
4              N#Cc1nc2ccccn2c1[N+](=O)[O-]                 2.11

Hi! Can you tell me PAH t/m ratio for each of these molecules?
1. CCOC(=O)c1nc2ccccn2c1[N+](=O)[O-]
2. CCOC(=O)c1cn2ccccc2n1

[2.00, 2.51]

* * *

Exercise: for every item that follows, state its recorded Oral LD50.
system: NIH mice; test: Acute oral toxicity, median lethal dose (LD50); assay type: in vivo; conditions: female NIH mice, single oral dose, 14 days observation

Solved entries (count: 2):
>>> print(df.to_string())
                            compound             result
0    O=C(O)c1nc2ccccn2c1[N+](=O)[O-]  > 2.000 g/kg b.w.
1  CCOC(=O)c1nc2ccccn2c1[N+](=O)[O-]   >4.000 g/kg b.w.

Could you now look at the following compound, please?
For the compound O=C(O)c1cn2ccccc2n1 [Compound 3a, imidazo[1,2-a]pyridine-2-carboxylic acid] , give its reported Oral LD50.
> 2.000 g/kg b.w.
